Overview of recorded pEC50 for various compounds
- test_target: Motilin Receptor (Oryctolagus cuniculus, UniProt G1T803)
- Construct: strips of longitudinal smooth muscle were sliced from the segments; from tissue; host or cells: rabbit duodenum longitudinal smooth muscle strips
- Sequence (G1T803 1-400): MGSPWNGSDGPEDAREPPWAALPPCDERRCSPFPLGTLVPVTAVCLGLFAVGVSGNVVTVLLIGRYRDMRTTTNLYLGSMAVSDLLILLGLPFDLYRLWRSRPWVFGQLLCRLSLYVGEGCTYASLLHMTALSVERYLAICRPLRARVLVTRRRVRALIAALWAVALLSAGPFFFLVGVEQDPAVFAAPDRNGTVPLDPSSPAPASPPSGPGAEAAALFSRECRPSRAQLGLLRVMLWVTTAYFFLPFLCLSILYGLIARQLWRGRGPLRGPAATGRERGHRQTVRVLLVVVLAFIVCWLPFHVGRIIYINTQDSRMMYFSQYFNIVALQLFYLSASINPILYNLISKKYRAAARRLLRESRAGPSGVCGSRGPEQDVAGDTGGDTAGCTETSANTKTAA
- measurement_notes: Tissue based assay for motilin agonist potency (rabbit duodenum contractility)
- Format: cell-based
- protocol_conditions: rabbit duodenum strips, contraction normalized to 1 μM carbachol; read-out: Motilin Receptor Agonist Activity (EC50)
In simple prose, pEC50 is minus the logarithm base ten of a concentration in moles per litre.

A selection of reference data follows.
- CC[C@@H](O)[C@@](C)(O)[C@@H]1OC(=O)[C@@H](C)[C@H](C[C@H]2C[C@@](C)(OC)[C@@H](O)[C@H](C)O2)[C@H](C)[C@@H](OC2O[C@H](C)C[C@H](N(C)C(C)C)[C@H]2O)[C@@]2(C)CC(C)=C(O2)[C@@H]1C (stereo partly drawn) [KC-11458, reference compound]: 7.35
- CC[C@H]1OC(=O)[C@H](C)[C@@H](O[C@H]2C[C@@](C)(OC)[C@@H](O)[C@H](C)O2)[C@H](C)[C@@H](O[C@@H]2O[C@H](C)C[C@H](N(C)C(C)C)[C@H]2O)[C@](C)(O)C[C@@H](C)[C@H](OC(=O)N(C)C)[C@H](C)[C@@H](O)[C@H]1C [Compound A-75]: 6.54

For the next question, use this compound.
Problem: Output pEC50 of CC[C@H]1OC(=O)[C@H](C)[C@@H](O[C@H]2C[C@@](C)(OC)[C@@H](O)[C@H](C)O2)[C@H](C)[C@@H](O[C@@H]2O[C@H](C)C[C@H](N(C)C(C)C)[C@H]2O)[C@](C)(O)C[C@@H](C)[C@H](OCC(=O)NCc2ccccc2)[C@H](C)[C@@H](O)[C@]1(C)O [Compound A-59]
Result: 7.10

----------
- test_target: Motilin Receptor (Oryctolagus cuniculus)
- Construct: strips of longitudinal smooth muscle were sliced from the segments; from tissue; host or cells: rabbit duodenum longitudinal smooth muscle strips
- measurement_notes: Tissue based assay for motilin agonist potency (rabbit duodenum contractility)
- Type: cell-based
- protocol_conditions: rabbit duodenum strips, contraction normalized to 1 μM carbachol; read-out: Motilin Receptor Agonist Activity (EC50)
Checkbox rule: EC50 lower than 100 nM = yes (1); EC50 not lower than 100 nM = no (0).

• CC[C@H]1OC(=O)[C@H](C)[C@@H](O[C@H]2C[C@@](C)(OC)[C@@H](O)[C@H](C)O2)[C@H](C)[C@@H](O[C@@H]2O[C@H](C)C[C@H](N(C)C(C)C)[C@H]2O)[C@](C)(O)C[C@@H](C)[C@H](NS(=O)(=O)C2CC2)[C@H](C)[C@@H](O)[C@]1(C)O [Compound A-41] = no (0)
• CC[C@H]1OC(=O)[C@H](C)[C@@H](O[C@H]2C[C@@](C)(OC)[C@@H](O)[C@H](C)O2)[C@H](C)[C@@H](O[C@@H]2O[C@H](C)C[C@H](N(C)C(C)C)[C@H]2O)[C@](C)(O)C[C@@H](C)[C@H](OCCNC(=O)OC)[C@H](C)[C@@H](O)[C@]1(C)O [Compound A-65] = no (0)

Problem: # check: EC50 < 100 nM for CC[C@H]1OC(=O)[C@H](C)[C@@H](O[C@H]2C[C@@](C)(OC)[C@@H](O)[C@H](C)O2)[C@H](C)[C@@H](O[C@@H]2O[C@H](C)C[C@H](N(C)C(C)C)[C@H]2O)[C@](C)(O)C[C@@H](C)[C@H](NS(=O)(=O)C(F)(F)F)[C@H](C)[C@@H](O)[C@]1(C)O [Compound A-43]
Result: no (0)

Problem: Does CC[C@H]1OC(=O)[C@H](C)[C@@H](O[C@H]2C[C@@](C)(OC)[C@@H](O)[C@H](C)O2)[C@H](C)[C@@H](O[C@@H]2O[C@H](C)C[C@H](N(C)C(C)C)[C@H]2O)[C@](C)(O)C[C@@H](C)[C@H](NS(C)(=O)=O)[C@H](C)[C@@H](O)[C@]1(C)O [Compound A-35] have EC50 strictly under 100 nM?
Result: no (0)

Problem: Decide: EC50 of CC[C@H]1OC(=O)[C@H](C)[C@@H](O[C@H]2C[C@@](C)(OC)[C@@H](O)[C@H](C)O2)[C@H](C)[C@@H](O[C@@H]2O[C@H](C)C[C@H](N(C)C(C)C)[C@H]2O)[C@](C)(O)C[C@@H](C)[C@H](OCc2nc[nH]n2)[C@H](C)[C@@H](O)[C@]1(C)O [Compound A-55] strictly below 100 nM?
Result: yes (1)

Problem: Lab note: EC50 threshold 100 nM. Does this molecule come in strictly under it? CC[C@H]1OC(=O)[C@H](C)[C@@H](O[C@H]2C[C@@](C)(OC)[C@@H](O)[C@H](C)O2)[C@H](C)[C@@H](O[C@@H]2O[C@H](C)C[C@H](N(C)C(C)C)[C@H]2O)[C@](C)(O)C[C@@H](C)[C@H](OCCNC(C)=O)[C@H](C)[C@@H](O)[C@]1(C)O [Compound A-30]
Result: yes (1)

Problem: Decide: EC50 of CCNC(=O)CO[C@@H]1[C@H](C)[C@@H](O)[C@](C)(O)[C@@H](CC)OC(=O)[C@H](C)[C@@H](O[C@H]2C[C@@](C)(OC)[C@@H](O)[C@H](C)O2)[C@H](C)[C@@H](O[C@@H]2O[C@H](C)C[C@H](N(C)C(C)C)[C@H]2O)[C@](C)(O)C[C@H]1C [Compound A-31] strictly below 100 nM?
Result: yes (1)

Problem: Please check: EC50 for CC[C@H]1OC(=O)[C@H](C)[C@@H](O[C@H]2C[C@@](C)(OC)[C@@H](O)[C@H](C)O2)[C@H](C)[C@@H](O[C@@H]2O[C@H](C)C[C@H](N(C)C[C@H](C)O)[C@H]2O)[C@](C)(O)C[C@@H](C)[C@H](OCC(N)=O)[C@H](C)[C@@H](O)[C@]1(C)O [Compound A-14] , strictly under 100 nM or not?
Result: no (0)

Problem: State whether 100 nM exceeds EC50 recorded for CC[C@H]1OC(=O)[C@H](C)[C@@H](O[C@H]2C[C@@](C)(OC)[C@@H](O)[C@H](C)O2)[C@H](C)[C@@H](O[C@@H]2O[C@H](C)C[C@H](N(C)C(C)C)[C@H]2O)[C@](C)(O)C[C@@H](C)[C@H](OCC(=O)N(C)C)[C@H](C)[C@@H](O)[C@]1(C)O [Compound A-15] .
Result: no (0)
